# experiment: lethal dose (LD50) determined orally in Swiss mice
# run-parameters: mouse, in vivo, oral
Where a name gives a salt, the structure may show the parent alone.
Listing: LD50 of selected compounds

compound	LD50
NC1=Nc2ccccc2C(c2ccc(Cl)cc2)CN1 (centres unmarked) [Example 4, hydrochloride]	1200 mg/kg
Cc1ccc(C2CNC(N)=Nc3ccc(C)cc32)cc1 (centres unmarked) [Example 8, hydrochloride]	2400 mg/kg
CCOC(=O)NC1=Nc2ccccc2C(c2ccccc2)CN1 (centres unmarked)	> 3200 mg/kg
NC1=Nc2ccccc2C(c2ccccc2)CN1 (centres unmarked) [Example 1, hydrochloride]	600 mg/kg

Next item in the queue.
Query Cc1ccc(C2CNC(N)=Nc3ccccc32)cc1 (centres unmarked) [Example 3, hydrochloride] yields LD50 of 330 mg/kg
